Cited source for all entries: patent US8263651B2

# system_name: UniProt:P35462
# Sequence (P35462 whole entry): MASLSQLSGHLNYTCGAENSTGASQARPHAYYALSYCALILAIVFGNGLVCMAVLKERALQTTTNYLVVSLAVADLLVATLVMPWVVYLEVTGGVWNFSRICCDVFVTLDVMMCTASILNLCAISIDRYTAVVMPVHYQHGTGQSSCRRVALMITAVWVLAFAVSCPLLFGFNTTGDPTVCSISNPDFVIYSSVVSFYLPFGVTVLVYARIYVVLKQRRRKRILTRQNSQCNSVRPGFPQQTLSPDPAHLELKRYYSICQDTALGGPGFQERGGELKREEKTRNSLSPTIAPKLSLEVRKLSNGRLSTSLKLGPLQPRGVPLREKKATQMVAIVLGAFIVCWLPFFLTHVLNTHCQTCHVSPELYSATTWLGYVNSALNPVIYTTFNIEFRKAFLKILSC
# method_description: radio-ligand binding competition, D3
# study_conditions: second round, individual EET isomers, 3 μM
property_measured: % Inhibition of Control Specific Binding (%)
The response must be a number in % with no trailing unit.

Some solved cases for reference:
>  <compound>
CCCCC/C=C\C/C=C\CC1OC1C/C=C\CCCC(=O)O (stereo not shown) [8,9-EET]

>  <% Inhibition of Control Specific Binding, %>
9

$$$$
>  <compound>
CCCCCC1OC1C/C=C\C/C=C\C/C=C\CCCC(=O)O (stereo not shown) [14,15-EET]

>  <% Inhibition of Control Specific Binding, %>
10

$$$$
>  <compound>
CCCCC/C=C\C/C=C\C/C=C\CC1OC1CCCC(=O)O (stereo not shown) [5,6-EET]

>  <% Inhibition of Control Specific Binding, %>
18

$$$$

So, CCCCC/C=C\C[C@H]1O[C@H]1C/C=C\C/C=C\CCCC(=O)O [11,12-EET] ? Its % Inhibition of Control Specific Binding was 6
